# assayed system: T1, Anti-CD28 Fab (SEQ ID NOs: 696, 697)
# T1 construct: Biotinylated and captured on neutravidin coated plates in the phage ELISA
# T1 sequence (VH, as listed by the source, chain 1 of 2): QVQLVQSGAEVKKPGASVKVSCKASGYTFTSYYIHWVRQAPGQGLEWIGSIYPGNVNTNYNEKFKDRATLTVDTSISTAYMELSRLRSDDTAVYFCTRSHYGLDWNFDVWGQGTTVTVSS
# T1 sequence (VL, as listed by the source, chain 2 of 2): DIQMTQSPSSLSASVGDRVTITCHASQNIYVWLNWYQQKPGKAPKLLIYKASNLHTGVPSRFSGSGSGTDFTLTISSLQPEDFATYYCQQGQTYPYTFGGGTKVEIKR
# run description: phage binding ELISA; biotinylated Fab on neutravidin plate, clonal phage supernatant, anti-M13 HRP; background signal 0.06
Catalogue of Anti-CD28 Fab signal (phage binding ELISA) values
readout: Anti-CD28 Fab signal (phage binding ELISA)

binder="YCEGHIMQYMAQCL (tested as crude clonal phage supernatant) [Phage-1020 (Peptide-87 library peptide, SEQ ID NO: 1336)]" assay_result=1.49
binder="YCDGHSQEYMEKCL (tested as crude clonal phage supernatant) [Phage-1014 (Peptide-87 library peptide, SEQ ID NO: 1330)]" assay_result=1.5
binder="YCDGHSELYMAKCL (tested as crude clonal phage supernatant) [Phage-1010 (Peptide-87 library peptide, SEQ ID NO: 1326)]" assay_result=1.51
binder="YCDGHLPIYQAKCL (tested as crude clonal phage supernatant) [Phage-1021 (Peptide-87 library peptide, SEQ ID NO: 1337)]" assay_result=1.49
binder="YCEGHMPQYMEKCL (tested as crude clonal phage supernatant) [Phage-1012 (Peptide-87 library peptide, SEQ ID NO: 1328)]" assay_result=1.51
binder="YCDGHSEQYIAKCL (tested as crude clonal phage supernatant) [Phage-1022 (Peptide-87 library peptide, SEQ ID NO: 1338)]" assay_result=1.49
binder="YCEGHSLMYMAKCL (tested as crude clonal phage supernatant) [Phage-1013 (Peptide-87 library peptide, SEQ ID NO: 1329)]" assay_result=1.5
